B1: library; numbered along this chain (parent)
chain: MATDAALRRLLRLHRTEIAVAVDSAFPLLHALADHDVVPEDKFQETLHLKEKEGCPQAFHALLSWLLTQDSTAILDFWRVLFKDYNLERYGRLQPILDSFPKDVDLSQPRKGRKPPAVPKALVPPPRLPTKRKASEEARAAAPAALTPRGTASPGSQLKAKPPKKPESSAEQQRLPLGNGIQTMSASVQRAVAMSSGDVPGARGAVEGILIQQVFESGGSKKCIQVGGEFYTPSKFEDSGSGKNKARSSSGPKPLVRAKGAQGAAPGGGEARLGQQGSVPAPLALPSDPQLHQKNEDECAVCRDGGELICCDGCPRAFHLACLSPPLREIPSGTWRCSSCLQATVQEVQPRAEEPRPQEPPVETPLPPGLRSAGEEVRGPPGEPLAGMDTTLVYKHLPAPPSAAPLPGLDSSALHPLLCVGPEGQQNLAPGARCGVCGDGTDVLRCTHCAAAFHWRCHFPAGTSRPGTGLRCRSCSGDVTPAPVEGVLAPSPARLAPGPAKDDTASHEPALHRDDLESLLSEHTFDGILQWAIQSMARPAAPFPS

- Variants of: B1
- method summary: AIRE transcriptional activation functional score (insulin promoter-GFP; nonsense median 0, synonymous median 1) (normalised score); higher = higher AIRE activity (more reporter activation)
- setup conditions: with insulin promoter-GFP reporter in HEK293
property: AIRE transcriptional activation functional score
Response field accepts a number only; no unit should be typed.

Example cases with answers are listed next.
[
  {
    "variant annotation": "Y394E",
    "observed": 0.49
  },
  {
    "variant annotation": "C449L",
    "observed": 0.195
  },
  {
    "variant annotation": "S185V",
    "observed": 0.26
  },
  {
    "variant annotation": "G421S",
    "observed": 0.74
  }
]

Need AIRE transcriptional activation functional score of E347L , thanks.
1.16

Then P27Y ?
-0.654

Then S196K ?
0.809

Then P350F ?
1.25

Then Q69R ?
1.15

Then C310E ?
1.29

Then K253V ?
0.867

Then G178E ?
0.493

Then E136I ?
0.792

Then V301N ?
0.743

Then L255Y ?
0.945

Then V80I ?
1.57

Then F459S ?
0.591

Then A193I ?
0.281

Then G498M ?
1.24

Then L529V ?
0.905

Then S241F ?
1.2

Then S153M ?
1.09
